From: patent EP4635969A1

I'd be grateful if you could share measured pEC50 for these entries.
- system name: glucocorticoid receptor (GR) (Homo sapiens, UniProt P04150)
- Sequence (P04150 521-777): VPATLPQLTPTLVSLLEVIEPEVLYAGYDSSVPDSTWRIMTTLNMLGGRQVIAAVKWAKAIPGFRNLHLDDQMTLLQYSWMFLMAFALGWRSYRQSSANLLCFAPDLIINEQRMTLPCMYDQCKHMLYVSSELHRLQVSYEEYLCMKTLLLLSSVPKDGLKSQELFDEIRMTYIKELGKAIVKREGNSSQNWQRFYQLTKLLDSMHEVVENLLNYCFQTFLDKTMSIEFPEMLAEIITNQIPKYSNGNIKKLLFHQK
- protocol description: Assay for agonist activity on glucocorticoid receptor (luciferase reporter, HEK293 cells transfected with pBIND-GR plasmid)
- Format: cell-based
- experimental setup: HEK293 cells transfected with pBIND-GR, luciferase signal; read-out: GR agonist EC50
- Protocol: Pharmacological Example 1: Assay for Agonist Activity on Glucocorticoid Receptor (GR) […] HEK293 cells were digested and seeded into 6-cm culture dishes. […] The cells were resuspended in phenol red-free DMEM medium containing 5% charcoal-stripped serum, counted, and then seeded into 96-well plates. […] The luminescence signal values were measured using a multimode microplate reader following the instructions of the luciferase assay kit. […]
Conceptually, pEC50 converts a concentration in mol/L into minus its log10.

For C[C@]12C=CC(=O)C=C1[C@@H](F)C[C@H]1[C@@H]3C[C@H]4OC(c5ccc(C[S+]([O-])C6CCOC6=O)cc5)O[C@@]4(C(=O)CO)[C@@]3(C)C[C@H](O)[C@@]12F (stereo partly drawn) [Compound 55] on glucocorticoid receptor (GR) (Homo sapiens, UniProt P04150), measured pEC50 was 8.88

For C[C@]12C=CC(=O)C=C1[C@@H](F)C[C@H]1[C@@H]3C[C@H]4OC(c5ccc(CSC6CCOC6=O)cn5)O[C@@]4(C(=O)CO)[C@@]3(C)C[C@H](O)[C@@]12F (stereo partly drawn) [Compound 49] on glucocorticoid receptor (GR) (Homo sapiens, UniProt P04150), measured pEC50 was 8.95

For C[C@]12C=CC(=O)C=C1CC[C@H]1[C@@H]3C[C@H]4OC(c5ccc(CSC6COC(=O)C6)cc5)O[C@@]4(C(=O)CCl)[C@@]3(C)C[C@H](O)[C@@]12Cl (stereo partly drawn) [Compound 39] on glucocorticoid receptor (GR) (Homo sapiens, UniProt P04150), measured pEC50 was 8.48
